B1: library; numbered along this chain (parent)
chain: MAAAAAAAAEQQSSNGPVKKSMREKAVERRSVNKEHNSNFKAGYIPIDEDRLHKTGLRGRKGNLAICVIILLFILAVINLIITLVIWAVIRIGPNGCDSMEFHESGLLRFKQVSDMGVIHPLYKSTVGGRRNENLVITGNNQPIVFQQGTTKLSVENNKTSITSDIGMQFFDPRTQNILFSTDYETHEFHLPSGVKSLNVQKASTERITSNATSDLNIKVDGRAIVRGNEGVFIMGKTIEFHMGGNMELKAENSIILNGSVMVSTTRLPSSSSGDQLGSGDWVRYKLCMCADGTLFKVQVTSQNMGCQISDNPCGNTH

variants of: B1; test: SGCB cell-surface expression functional score (HA stain, bin4 vs bin1, normalised to synonymous) (log10 ratio); higher = more cell-surface SGCB (functional)
recorded.metric: SGCB cell-surface expression functional score (log10)
In your answer, state the number alone without any accompanying words.

[ask] Data request, read-out SGCB cell-surface expression functional score (log10), for S279I
[reply] -0.06

[ask] Follow-up entry: P46C
[reply] 0.44

[ask] Follow-up entry: G149W
[reply] -0.54

[ask] Follow-up entry: V118P
[reply] -0.73

[ask] Follow-up entry: P313C
[reply] 0.15

[ask] Follow-up entry: G129S
[reply] 0.47

[ask] Follow-up entry: H187E
[reply] 0.18

[ask] Follow-up entry: R23G
[reply] 0.48

[ask] Follow-up entry: L72T
[reply] 0.45

[ask] Follow-up entry: G106C
[reply] -1.9

[ask] Follow-up entry: I82Y
[reply] -0.15

[ask] Follow-up entry: T150W
[reply] 1.1

[ask] Follow-up entry: V232S
[reply] -0.67

[ask] Follow-up entry: T317A
[reply] -0.21

[ask] Follow-up entry: T265N
[reply] 0.79

[ask] Follow-up entry: V195L
[reply] -0.39

[ask] Follow-up entry: D115M
[reply] -1.51

[ask] Follow-up entry: C67D
[reply] 0.11

[ask] Follow-up entry: M289N
[reply] 0.11

[ask] Follow-up entry: I86K
[reply] -0.65

[ask] Follow-up entry: A9D
[reply] 0.38

[ask] Follow-up entry: I225R
[reply] 0.53

[ask] Follow-up entry: H36M
[reply] -0.06

[ask] Follow-up entry: R30K
[reply] 0.16

[ask] Follow-up entry: M289C
[reply] -0.54

[ask] Follow-up entry: T266Y
[reply] 0.19

[ask] Follow-up entry: G280I
[reply] 0.26

[ask] Follow-up entry: K152F
[reply] 0.02

[ask] Follow-up entry: S272H
[reply] -0.05

[ask] Follow-up entry: I309D
[reply] -1.61

[ask] Follow-up entry: E248F
[reply] 0.95

[ask] Follow-up entry: T182N
[reply] -1.25

[ask] Follow-up entry: A76Q
[reply] 0.3

[ask] Follow-up entry: I81H
[reply] 0.45

[ask] Follow-up entry: S302R
[reply] 0.1

[ask] Follow-up entry: R60Q
[reply] 0.38

[ask] Follow-up entry: I309K
[reply] -0.24

[ask] Follow-up entry: I70C
[reply] -0.3

[ask] Follow-up entry: S114C
[reply] 0.01

[ask] Follow-up entry: S14C
[reply] 0.04

[ask] Follow-up entry: I90R
[reply] -0.63

[ask] Follow-up entry: E206S
[reply] 0.16

[ask] Follow-up entry: V263T
[reply] 0.4

[ask] Follow-up entry: T213Y
[reply] -0.24

[ask] Follow-up entry: I90H
[reply] -1.82

[ask] Follow-up entry: K41R
[reply] -0.25
